Test system: MALME-3M melanoma
Assay: NCI tumour cell line growth inhibition, 48 h
TGI overview
MEASURED ENDPOINT: TGI

{"columns": ["COMPOUND", "MEASURED ENDPOINT", "RESULT"],
 "data": [
  ["Cc1ccc(C)c2c1CCc1cc3ccccc3nc1-2", "TGI", "> 100 µM"],
  ["CSc1ccccc1P(CCP(c1ccccc1SC)c1ccccc1SC)c1ccccc1SC", "TGI", "> 100 µM"],
  ["CCCC(=O)OC1CC(n2cc(F)c(=O)[nH]c2=O)OC1CO (configuration not stated)", "TGI", "> 10 µM"],
  ["c1ccc(CNc2ncnc3n[nH]nc23)cc1", "TGI", "> 100 µM"],
  ["OC(O)(C(F)(F)F)C(F)(F)F", "TGI", "> 100 µM"],
  ["CCOC(=O)C[n+]1ccc2c([nH]c3cc(OC)ccc32)c1C", "TGI", "> 100 µM"],
  ["O=c1oc2cc(OS(=O)(=O)c3ccccc3)ccc2c2c1CCCCC2", "TGI", "> 100 µM"],
  ["C/C(=C\\c1ccccc1)C(=O)NCc1ccc(C(=O)NCCc2c[nH]c3ccccc23)cc1", "TGI", "> 100 µM"],
  ["CC(=O)O[C@H](C[C@H](C(C)C)N(C)C(=O)[C@@H](NC(=O)[C@H]1CCCCN1C)C(C)(C)C)c1nc(C(=O)N[C@@H](Cc2ccccc2)C[C@H](C)C(=O)O)cs1", "TGI", "> 25 µM"],
  ["CCCCN(CCCC)C(=O)C(=O)CC(=O)/C=C/c1ccccc1", "TGI", "> 100 µM"],
  ["Cc1ccc2c(=O)c(C(=O)N(CCO)CCO)c[nH]c2n1", "TGI", "> 100 µM"],
  ["O=c1oc2ccccc2c(O)c1Cc1cccc(Cc2c(O)c3ccccc3oc2=O)c1", "TGI", "> 100 µM"]
]}

* * *

Test system: HCC-2998 colon
Assay: NCI tumour cell line growth inhibition, 48 h

{"columns": ["COMPOUND", "TESTED SYSTEM", "GI50"],
 "data": [
  ["Cc1[nH]n(-c2ccccc2)c(=O)c1C(=O)c1ccccc1", "HCC-2998 colon", "> 25 µM"],
  ["C[C@H]1CCC/C=C/[C@@H]2C[C@H](O)C[C@H]2[C@H](O)[C@@H](SC2OC(CO)C(O)C(O)C2O)CC(=O)O1 (stereo partly drawn)", "HCC-2998 colon", "> 100 µM"],
  ["O=S1(=O)CC(Br)C(Br)C1 (stereo not drawn)", "HCC-2998 colon", "14.9 µM"]
]}

* * *

Each entry below lists one item and its recorded TGI value.
Test system: NCI-H23 lung
Assay: NCI tumour cell line growth inhibition, 48 h

{"columns": ["COMPOUND", "TGI"],
 "data": [
  ["CC(=O)OCC(OC(C)=O)C(OC(C)=O)C(OC(C)=O)C(=O)CNn1c(-c2ccccc2Cl)nc2ccc(Br)cc2c1=O (configuration not stated)", "> 100 µM"],
  ["O=C1C2=C(c3ccccc31)C(c1ccc(Cl)cc1)NC(=S)N2 (configuration not stated)", "40.5 µM"],
  ["COC(=O)c1c(C#C[Si](C)(C)C)c(C#C[Si](C)(C)C)c(C#C[Si](C)(C)C)c(C#C[Si](C)(C)C)c1C(=O)OC", "> 100 µM"],
  ["O[C@H](CN1CC1)[C@@H](O)CN1CC1", "> 100 µM"],
  ["C[C@]12CC[C@H]3[C@@H](CCC4=C[C@@H](OC5OCC(OC6OC(CO)C(O)C(O)C6O)C(O)C5O)CC[C@@]43C=O)[C@@]1(O)CCC2C1=CC(=O)OC1 (some centres not stated)", "1.08 µM"],
  ["Cn1c(=O)c2sc3cc4c(cc3c2c2ccccc21)sc1c(=O)n(C)c2ccccc2c14", "> 100 µM"],
  ["O=C(Nc1cccc([N+](=O)[O-])c1)c1cc2ccccc2cc1O", "3.65 µM"],
  ["O=C(c1ccccc1)c1ccccc1C(=O)c1ccccc1", "> 100 µM"],
  ["C[C@@H](c1ccccc1)N(CC#N)C1CCC[C@H]1O (some centres not stated)", "> 100 µM"],
  ["COc1cc(C(=O)C/C(CCC(=O)Nc2ccc(Cl)cc2Cl)=N/Nc2nnc(C)n2N)ccc1O", "> 100 µM"],
  ["c1ccc(COc2cccc3cccnc23)cc1", "> 100 µM"],
  ["S=c1[nH]nc(SCc2ccccc2Cl)c2[nH]cnc12", "> 100 µM"],
  ["O=C(Nc1ccc(-c2ccnc(Nc3ccc(N4CCOCC4)cc3)n2)cc1)C1CCCN1 (configuration not stated)", "32.4 µM"],
  ["CC(C)(O)CCC(O)C(C)(O)C1CCC2(O)C3=CC(=O)C4(O)CC(O)C(O)CC4(C)C3CCC12C (configuration not stated) (tested in a mixture with another compound)", "> 100 µM"],
  ["c1ccc(CNc2ncnc3n[nH]nc23)cc1", "> 100 µM"],
  ["CCCCCCCCCCCCCCCCNc1ccn(C2CC(OP(=O)(O)OCC3OC(n4cc(CC)c(=O)[nH]c4=O)CC3O)C(CO)O2)c(=O)n1 (configuration not stated)", "> 100 µM"],
  ["CCN(CC)CCOc1nc2cc(OC)c(OC)cc2c2c1-c1ccc(OC)cc1C2=O", "27.9 µM"],
  ["Cc1ccc2c(=O)c(C(=O)N(CCO)CCO)c[nH]c2n1", "> 100 µM"],
  ["O=C(NC/C=C/Br)NC1CCNc2ccccc21 (configuration not stated)", "55.4 µM"],
  ["C/C(=C\\c1ccccc1)C(=O)NCc1ccc(C(=O)NCCc2c[nH]c3ccccc23)cc1", "> 100 µM"],
  ["O=C1NC(O)CCN1C1CC(O)C(CO)O1 (configuration not stated)", "> 100 µM"],
  ["Cc1cccc(C(O)c2cccnc2)c1O (configuration not stated)", "> 100 µM"],
  ["COc1ccc(C2NC(=O)Nc3c2c(=O)oc2c3ccc3ccccc32)cc1 (configuration not stated)", "> 100 µM"],
  ["Cn1c(=O)c2[nH]c(CCC(=O)O)nc2n(C)c1=O", "> 100 µM"],
  ["CCOC(=O)CCC(C(=O)OCC)n1nnc2cc(Nc3c(C)[n+]([O-])c4ccc(Cl)cc4[n+]3[O-])ccc21 (configuration not stated)", "> 100 µM"],
  ["CC(=O)O[C@H](C[C@H](C(C)C)N(C)C(=O)[C@@H](NC(=O)[C@H]1CCCCN1C)C(C)(C)C)c1nc(C(=O)N[C@@H](Cc2ccccc2)C[C@H](C)C(=O)O)cs1", "> 25 µM"],
  ["CS(=O)(=O)Nc1cc(-c2ccc3ncnc(Nc4cccc(Cl)c4F)c3c2)cnc1Cl", "10.1 µM"]
]}
